biological target: Feline FcRn complex (FcRn-alpha subunit and beta-microglobulin) (feline); test: SPR (Biacore), feline FcRn captured on SA chip, IgG flowed over, pH 6

# Binder, Unit symbol, Kd
records = [
    ("feline IgG1a Fc mutant S428L, S434W (antibody, part only; not given: Variable domains, not shown: another chain or arm of the molecule; small tags and cut ends) constant: ASTTAPSVFPLAPSCGTTSGATVALACLVLGYFPEPVTVSWNSGALTSGVHTFPAVLQASGLYSLSSMVTVPSSRWLSDTFTCNVAHPPSNTKVDKTVRKTDHPPGPKPCDCPKCPPPEMLGGPSIFIFPPKPKDTLSISRTPEVTCLVVDLGPDDSDVQITWFVDNTQVYTAKTSPREEQFNSTYRVVSVLPILHQDWLKGKEFKCKVNSKSLPSPIERTISKAKGQPHEPQVYVLPPAQEELSRNKVSVTCLIKSFHPPDIAVEWEITGQPEPENNYRTTPPQLDSDGTYFVYSKLSVDRSHWQRGNTYTCSVLHEALHWHHTQKSLTQSPGK", "nM", 1.02),
]

// data source = patent US20240400708A1
